Reported EC50 by item:
- Tested on: HIV-1(IIIB)
- ASSAY DETAILS: Inhibition of HIV-1 induced syncytium formation in CEM cells, wild type
- Format: cell-based
- RUN PARAMETERS: Human immunodeficiency virus 1, IIIB, CCRF-CEM, 96 h, Table 2B, WT = HIV-1(IIIB), day 4, averages of 2 to 3 independent experiments, read-out: Antiviral Activity of Comparative Compounds EC50, WT
- From the text: CEM cells were obtained from the American Tissue Cell Culture Collection (Rockville, Md.). HIV-1(IIIB) was originally obtained from the culture supernatant of persistently HIV-1-infected H9 cells and was provided by R. C. Gallo and M. Popovic (National Cancer Institute, National Institutes of Health, Bethesda, Md.). […]
EXPERIMENTAL READOUT: EC50 (µg/mL)

- SMILES TEXT: "COc1ccc(NC(=S)c2ccoc2C)cc1CC(=O)OC(C)C"
  MEASURED TARGET: "HIV-1(IIIB)"
  EXPERIMENTAL READOUT: "EC50"
  OBSERVED RESULT: 0.009
- SMILES TEXT: "COc1ccc(NC(=O)c2ccoc2C)cc1CC(=O)OC(C)C"
  MEASURED TARGET: "HIV-1(IIIB)"
  EXPERIMENTAL READOUT: "EC50"
  OBSERVED RESULT: 0.7
- SMILES TEXT: "COc1ccccc1C(=O)Nc1ccc(Cl)c(C(=O)OC2CCCC2)c1"
  MEASURED TARGET: "HIV-1(IIIB)"
  EXPERIMENTAL READOUT: "EC50"
  OBSERVED RESULT: 0.45
